- assay.target: airway epithelial sodium currents (sodium channel) (UniProt A0A8I3MKE6+A0A8I3Q679+Q95165)
- method.description: Sodium channel blocking activity: inhibition of short circuit current (ISC) in airway epithelial monolayers mounted in Ussing chambers
- Type: cell-based, human, dog, sheep or rodent
- test.parameters: Capped Pyrazinoylguanidines; relative potency for PSA 4022 = 100 using EC50 from PSA 4022 in same run
Where a name gives a salt, the structure may show the parent alone.
Use Y when the recorded Fold Amiloride** (PSA 4022 = 100) is no lower than 50; use N when it is lower.

Hi, just wondering whether N#CCOc1ccc(CCCCNC(=N)NC(=O)c2nc(Cl)c(N)nc2N)cc1 shows Fold Amiloride** (PSA 4022 = 100) of 50 or higher.
Y

Hi, just wondering whether CN(C)C(=O)COc1ccc(CCCCNC(=N)NC(=O)c2nc(Cl)c(N)nc2N)cc1 [compound 16313, hydrochloride] shows Fold Amiloride** (PSA 4022 = 100) of 50 or higher.
N

Hi, just wondering whether N=C(NCCCCc1ccc(OCC(=O)Nc2ccccc2)cc1)NC(=O)c1nc(Cl)c(N)nc1N shows Fold Amiloride** (PSA 4022 = 100) of 50 or higher.
N

Hi, just wondering whether CC(C)[C@H](NS(=O)(=O)c1ccc(CCCCNC(=N)NC(=O)c2nc(Cl)c(N)nc2N)cc1)C(N)=O.Cl shows Fold Amiloride** (PSA 4022 = 100) of 50 or higher.
Y

Hi, just wondering whether N=C(NCCCCc1ccc(OCC(=O)NCC(N)=O)cc1)NC(=O)c1nc(Cl)c(N)nc1N shows Fold Amiloride** (PSA 4022 = 100) of 50 or higher.
N

Hi, just wondering whether N=C(NCCCCc1ccc(C[C@@H](N)CC(=O)O)cc1)NC(=O)c1nc(Cl)c(N)nc1N shows Fold Amiloride** (PSA 4022 = 100) of 50 or higher.
N

Hi, just wondering whether Cl.N=C(NCCCCc1ccc(OCCCc2nnn[nH]2)cc1)NC(=O)c1nc(Cl)c(N)nc1N shows Fold Amiloride** (PSA 4022 = 100) of 50 or higher.
N

Hi, just wondering whether CN(C)C(=S)Oc1ccc(CCCCNC(=N)NC(=O)c2nc(Cl)c(N)nc2N)cc1 shows Fold Amiloride** (PSA 4022 = 100) of 50 or higher.
Y

Hi, just wondering whether N=C(NCCCCc1ccc(OCC(O)COCC(O)CO)cc1)NC(=O)c1nc(Cl)c(N)nc1N (centres unmarked) shows Fold Amiloride** (PSA 4022 = 100) of 50 or higher.
Y

Hi, just wondering whether N=C(NCCCCc1ccc(OCCCc2ncc[nH]2)cc1)NC(=O)c1nc(Cl)c(N)nc1N shows Fold Amiloride** (PSA 4022 = 100) of 50 or higher.
Y

Hi, just wondering whether N=C(NCCCCc1ccc(OCC(=O)Nc2ncc[nH]2)cc1)NC(=O)c1nc(Cl)c(N)nc1N [compound 16437, dihydrochloride] shows Fold Amiloride** (PSA 4022 = 100) of 50 or higher.
Y

---

Exercise: state measured pEC50 for each of the compounds provided.
- assay.target: airway epithelial sodium currents (sodium channel) (UniProt A0A8I3MKE6+A0A8I3Q679+Q95165)
- method.description: Sodium channel blocking activity: inhibition of short circuit current (ISC) in airway epithelial monolayers mounted in Ussing chambers
- Type: cell-based, human, dog, sheep or rodent
- test.parameters: Selected Alaphatic Pyrazinoylguanidines (Formula II); mean ± spread; read-out: EC50
In simple prose, pEC50 is minus the logarithm base ten of a concentration in moles per litre.

Tested on airway epithelial sodium currents (sodium channel) (UniProt A0A8I3MKE6+A0A8I3Q679+Q95165), the item CC(C)(C)OC(=O)NCCCCCCCCCNC(=N)NC(=O)c1nc(Cl)c(N)nc1N [compound 19484] showed pEC50 equal to 7.18

Tested on airway epithelial sodium currents (sodium channel) (UniProt A0A8I3MKE6+A0A8I3Q679+Q95165), the item CC(C)(C)OC(=O)NCCCOCCCNC(=N)NC(=O)c1nc(Cl)c(N)nc1N [compound 19333] showed pEC50 equal to 7.09

Tested on airway epithelial sodium currents (sodium channel) (UniProt A0A8I3MKE6+A0A8I3Q679+Q95165), the item CC(C)(C)OC(=O)NCCCCCCCCNC(=N)NC(=O)c1nc(Cl)c(N)nc1N [compound 19156] showed pEC50 equal to 7.34

Tested on airway epithelial sodium currents (sodium channel) (UniProt A0A8I3MKE6+A0A8I3Q679+Q95165), the item N=C(NCCCCCCCN)NC(=O)c1nc(Cl)c(N)nc1N [compound 18705] showed pEC50 equal to 7.00

Tested on airway epithelial sodium currents (sodium channel) (UniProt A0A8I3MKE6+A0A8I3Q679+Q95165), the item CC(C)(C)OC(=O)NCCCCCCCCCCCCNC(=N)NC(=O)c1nc(Cl)c(N)nc1N [compound 23776] showed pEC50 equal to 7.12

---

Counter-ions that a name gives are not always drawn.
measurement.name: melting point

The recorded melting point for entry N=C(N)NCCCCCCCCCCCNC(=N)NC(=O)c1nc(Cl)c(N)nc1N (as salt: hydrochloride) [compound 23991, dihydrochloride] equals 151 to 153 °C

The recorded melting point for entry N=C(NCCCCCCCCCCN)NC(=O)c1nc(Cl)c(N)nc1N (as salt: hydrochloride) [compound 19487, dihydrochloride] equals 168 to 170 °C

The recorded melting point for entry CC(C)(C)OC(=O)NCCCCCCCCCCNC(=N)NC(=O)c1nc(Cl)c(N)nc1N equals 186 to 188 °C

The recorded melting point for entry CC(C)(C)OC(=O)NCCCCCCCCCNC(=N)NC(=O)c1nc(Cl)c(N)nc1N [compound 19484] equals 187 to 189 °C

The recorded melting point for entry N=C(N)NCCOCCOCCNC(=N)NC(=O)c1nc(Cl)c(N)nc1N (as salt: hydrochloride) equals 108 to 112 °C (dec.)

The recorded melting point for entry CC(C)(C)OC(=O)NCCCCCCCCCCCNC(=N)NC(=O)c1nc(Cl)c(N)nc1N equals 82 to 84 °C

The recorded melting point for entry N=C(N)NCCCCCCCNC(=N)NC(=O)c1nc(Cl)c(N)nc1N (as salt: hydrochloride) [compound 19155, dihydrochloride] equals 140 to 142 °C

The recorded melting point for entry N=C(NCCCCCCCCCCCCN)NC(=O)c1nc(Cl)c(N)nc1N (as salt: hydrochloride) [compound 23609, dihydrochloride] equals 235 to 237 °C

The recorded melting point for entry N=C(NCCCOCCCN)NC(=O)c1nc(Cl)c(N)nc1N (as salt: hydrochloride) equals 164 to 166 °C (dec.)

The recorded melting point for entry CC(C)(C)OC(=O)N=C(NCCCCCCCCNC(=N)NC(=O)c1nc(Cl)c(N)nc1N)NC(=O)OC(C)(C)C equals 208 to 210 °C (dec.)

The recorded melting point for entry N=C(NCCCCCCN)NC(=O)c1nc(Cl)c(N)nc1N (as salt: hydrochloride) [compound 18706, dihydrochloride] equals > 240 °C

The recorded melting point for entry CN(C)C(=S)Oc1ccc(CCCCNC(=N)NC(=O)c2nc(Cl)c(N)nc2N)cc1 [compound 17846] equals 102 to 105 °C

The recorded melting point for entry N=C(NCCCCc1ccc(OCC(O)COCC(O)CO)cc1)NC(=O)c1nc(Cl)c(N)nc1N (stereo not shown) [compound 15143] equals 73 to 82 °C (dec.)

---

- assay.target: airway epithelial sodium currents (sodium channel) (UniProt A0A8I3MKE6+A0A8I3Q679+Q95165)
- Sequence (A0A8I3MKE6 1-646): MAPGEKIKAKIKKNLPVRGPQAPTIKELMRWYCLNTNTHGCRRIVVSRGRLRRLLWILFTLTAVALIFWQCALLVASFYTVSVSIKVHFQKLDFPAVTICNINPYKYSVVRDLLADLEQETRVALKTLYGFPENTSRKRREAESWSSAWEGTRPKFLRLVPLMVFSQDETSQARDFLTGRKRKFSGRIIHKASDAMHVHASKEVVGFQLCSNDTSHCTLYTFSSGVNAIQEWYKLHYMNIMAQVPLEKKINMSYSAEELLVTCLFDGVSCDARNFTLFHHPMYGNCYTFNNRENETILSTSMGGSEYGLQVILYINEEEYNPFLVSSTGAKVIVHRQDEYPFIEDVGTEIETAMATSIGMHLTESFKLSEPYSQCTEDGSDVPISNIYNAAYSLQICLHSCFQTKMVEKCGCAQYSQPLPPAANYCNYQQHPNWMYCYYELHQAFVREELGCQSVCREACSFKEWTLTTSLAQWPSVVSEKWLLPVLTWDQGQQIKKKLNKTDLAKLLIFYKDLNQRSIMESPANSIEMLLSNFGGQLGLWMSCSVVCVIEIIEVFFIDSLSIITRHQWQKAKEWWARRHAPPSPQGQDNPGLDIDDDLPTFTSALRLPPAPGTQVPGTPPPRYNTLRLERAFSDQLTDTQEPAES
- Sequence (A0A8I3Q679 1-649): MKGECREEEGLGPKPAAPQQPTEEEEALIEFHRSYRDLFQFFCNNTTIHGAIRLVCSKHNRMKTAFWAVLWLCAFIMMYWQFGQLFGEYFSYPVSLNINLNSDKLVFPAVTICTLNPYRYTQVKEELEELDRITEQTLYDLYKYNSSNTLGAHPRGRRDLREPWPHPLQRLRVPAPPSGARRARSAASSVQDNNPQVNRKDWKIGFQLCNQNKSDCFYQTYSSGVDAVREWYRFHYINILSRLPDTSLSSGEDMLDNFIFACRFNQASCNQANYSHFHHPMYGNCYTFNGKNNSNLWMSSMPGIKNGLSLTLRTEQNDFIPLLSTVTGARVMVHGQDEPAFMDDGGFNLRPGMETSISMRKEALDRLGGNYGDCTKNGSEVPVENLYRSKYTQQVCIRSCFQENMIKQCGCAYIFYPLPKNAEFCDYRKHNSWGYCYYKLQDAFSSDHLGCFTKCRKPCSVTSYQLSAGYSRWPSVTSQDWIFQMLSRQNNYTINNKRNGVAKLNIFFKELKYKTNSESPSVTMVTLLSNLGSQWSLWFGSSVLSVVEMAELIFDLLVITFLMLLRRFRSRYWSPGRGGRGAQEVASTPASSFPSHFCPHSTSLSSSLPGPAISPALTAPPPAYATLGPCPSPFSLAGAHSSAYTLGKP
- Sequence (Q95165 1-641): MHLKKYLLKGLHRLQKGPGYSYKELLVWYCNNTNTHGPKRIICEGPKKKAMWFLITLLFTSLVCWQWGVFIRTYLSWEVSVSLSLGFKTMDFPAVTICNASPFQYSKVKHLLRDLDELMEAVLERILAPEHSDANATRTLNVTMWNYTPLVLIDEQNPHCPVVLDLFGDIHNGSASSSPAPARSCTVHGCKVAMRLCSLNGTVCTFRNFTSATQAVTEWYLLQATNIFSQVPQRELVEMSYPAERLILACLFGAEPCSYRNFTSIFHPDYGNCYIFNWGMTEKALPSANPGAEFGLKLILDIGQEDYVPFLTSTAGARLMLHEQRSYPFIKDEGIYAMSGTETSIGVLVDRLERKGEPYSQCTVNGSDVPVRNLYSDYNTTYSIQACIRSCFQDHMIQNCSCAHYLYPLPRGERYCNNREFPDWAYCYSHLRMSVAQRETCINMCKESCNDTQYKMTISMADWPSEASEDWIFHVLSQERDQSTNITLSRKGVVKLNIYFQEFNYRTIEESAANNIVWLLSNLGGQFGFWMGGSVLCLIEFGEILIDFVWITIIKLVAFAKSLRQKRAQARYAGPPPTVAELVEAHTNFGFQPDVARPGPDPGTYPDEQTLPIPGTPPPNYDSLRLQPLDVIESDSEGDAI
- method.description: Sodium channel blocking activity: inhibition of short circuit current (ISC) in airway epithelial monolayers mounted in Ussing chambers
- Format: cell-based, human, dog, sheep or rodent
- test.parameters: Alaphatic Pyrazinoylguanidines; relative potency for PSA 4022 = 100 using EC50 from PSA 4022 in same run
- Description: In Vitro Measure of Sodium Channel Blocking Activity and Reversibility One assay used to assess mechanism of action and/or potency of the compounds of the present invention involves the determination of lumenal drug inhibition of airway epithelial sodium currents measured under short circuit current (ISC) using airway epithelial monolayers mounted in Ussing chambers. […] All data from the voltage clamps are collected via a computer interface and analyzed off-line. […]
Structures can show the parent of a compound that is named as a salt.
Exercise: state measured Fold Amiloride** (PSA 4022 = 100) for each of the compounds provided.
Number only, please.

The recorded Fold Amiloride** (PSA 4022 = 100) for entry CC(C)(C)OC(=O)NCCCCCCCCNC(=N)NC(=O)c1nc(Cl)c(N)nc1N equals 18

The recorded Fold Amiloride** (PSA 4022 = 100) for entry N=C(NCCCCCCCCCCCCN)NC(=O)c1nc(Cl)c(N)nc1N [compound 23609, dihydrochloride] equals 66

The recorded Fold Amiloride** (PSA 4022 = 100) for entry N=C(N)NCCCCCCCNC(=N)NC(=O)c1nc(Cl)c(N)nc1N [compound 19155, dihydrochloride] equals 8

The recorded Fold Amiloride** (PSA 4022 = 100) for entry N=C(NCCCCCCCN)NC(=O)c1nc(Cl)c(N)nc1N equals 8

The recorded Fold Amiloride** (PSA 4022 = 100) for entry N=C(NCCCCCCCCCCCN)NC(=O)c1nc(Cl)c(N)nc1N [compound 23682, dihydrochloride] equals 51

The measured values listed here are drawn from patent US20050090505A1.
